biological target: human ENPP1 enzymatic domain (Homo sapiens, UniProt P22413); construct: recombinant protein containing the human ENPP1 enzymatic domain; experiment: ENPP1 Enzymatic Inhibition Assay (2′3′-cGAMP substrate, AMP-Glo luminescence); details: 1 nM ENPP1, 20 uM 2′3′-cGAMP, 30 minutes at 37° C.
Sequence (P22413 191-591 limits assumed): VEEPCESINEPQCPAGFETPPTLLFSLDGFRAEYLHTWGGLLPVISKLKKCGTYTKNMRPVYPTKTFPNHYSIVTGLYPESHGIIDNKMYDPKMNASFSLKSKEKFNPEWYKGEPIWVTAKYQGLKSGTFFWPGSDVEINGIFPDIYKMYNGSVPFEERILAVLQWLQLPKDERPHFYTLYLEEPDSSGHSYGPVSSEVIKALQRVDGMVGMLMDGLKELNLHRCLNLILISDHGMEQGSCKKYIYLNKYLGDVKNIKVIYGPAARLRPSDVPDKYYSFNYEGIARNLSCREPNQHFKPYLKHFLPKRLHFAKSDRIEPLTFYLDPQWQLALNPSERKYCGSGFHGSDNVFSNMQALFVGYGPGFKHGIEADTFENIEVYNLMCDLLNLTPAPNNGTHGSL
experimental readout: IC50

>>> print(df.to_string())
                         chemical_structure                             tested_target  observed_result
0  COc1ccc2c(Nc3ccc([S@](=N)(=O)N[C@H](C)CO)cc3)ccnc2c1  human ENPP1 enzymatic domain (Homo sapiens, UniProt P22413)          < 10 nM
1  COc1ccc2c(Oc3ccc([S@](=N)(=O)NCC4CC4)cc3)ccnc2c1  human ENPP1 enzymatic domain (Homo sapiens, UniProt P22413)         > 100 nM
2  COc1ccc2c(Oc3ccc([S@](=N)(=O)N[C@H](C)CO)cc3)ccnc2c1  human ENPP1 enzymatic domain (Homo sapiens, UniProt P22413)     10 to 100 nM
3  CN[S@](=N)(=O)c1ccc(Nc2ncnc3cc(OC)ccc23)cc1  human ENPP1 enzymatic domain (Homo sapiens, UniProt P22413)          < 10 nM
4  COc1cc2nccc(Nc3ccc([S@@](=N)(=O)NC[C@@H](C)O)cc3)c2cc1F  human ENPP1 enzymatic domain (Homo sapiens, UniProt P22413)          < 10 nM
5  COc1cc2nccc(Nc3ccc([S@@](=N)(=O)NC[C@@H](C)O)cc3)c2cc1OC  human ENPP1 enzymatic domain (Homo sapiens, UniProt P22413)          < 10 nM
6  COc1ccc2c(Oc3ccc([S@@](=N)(=O)NCC4CC4)cc3)ccnc2c1  human ENPP1 enzymatic domain (Homo sapiens, UniProt P22413)          < 10 nM
7  CN[S@](=N)(=O)c1ccc(Nc2ccnc3cc(OC)ccc23)cc1  human ENPP1 enzymatic domain (Homo sapiens, UniProt P22413)          < 10 nM
